tested on: HIV-1 IIIB; test: microbe, parasite or virus in culture; type: cell-based; settings: Table 3; against HIV-1 IIIB virus; read-out: EC50
// values below are reported EC50
Use µM as the unit, but write only the number.

N=C(N)NCCC[C@H](NC(=O)[C@H](CCCNC(=N)N)NC(=O)[C@H](CCCNC(=N)N)NC(=O)[C@H](CCCNC(=N)N)NC(=O)[C@H](CCCNC(=N)N)NC(=O)[C@@H](N)CCCNC(=N)N)C(=O)O    110
N=C(N)NCCC[C@H](NC(=O)[C@H](CCCNC(=N)N)NC(=O)[C@H](CCCNC(=N)N)NC(=O)[C@H](CCCNC(=N)N)NC(=O)[C@H](CCCNC(=N)N)NC(=O)[C@@H](N)CCCNC(=N)N)C(=O)NC[C@H]1O[C@H](O[C@H]2[C@H](O)[C@@H](O)[C@H](N)C[C@@H]2N)[C@H](N)[C@@H](O)[C@@H]1O    70

# context switch: different compound, same EC50
I have this compound here, N=C(N)NCCC[C@H](NC(=O)[C@H](CCCNC(=N)N)NC(=O)[C@H](CCCNC(=N)N)NC(=O)[C@H](CCCNC(=N)N)NC(=O)[C@H](CCCNC(=N)N)NC(=O)[C@H](CCCNC(=N)N)NC(=O)[C@H](CCCNC(=N)N)NC(=O)[C@H](CCCNC(=N)N)NC(=O)[C@@H](N)CCCNC(=N)N)C(=O)O , and I need its recorded EC50.
33

* * *

tested on: HIV-1 IIIB; assay: microbe, parasite or virus in culture; assay type: cell-based; conditions: Table 4; read-out: EC50 IIIB
Measured quantity: EC50 (nM)
Use nM as the unit, but write only the number.

I have this compound here, CC(=O)N[C@H](CCCNC(=N)N)C(=O)N[C@H](CCCNC(=N)N)C(=O)N[C@H](CCCNC(=N)N)C(=O)N[C@H](CCCNC(=N)N)C(=O)N[C@H](CCCNC(=N)N)C(=O)N[C@H](CCCNC(=N)N)C(=O)NC[C@H]1O[C@H](O[C@H]2[C@H](O)[C@@H](O)[C@H](N)C[C@@H]2N)[C@H](N)[C@@H](O)[C@@H]1O , and I need its recorded EC50.
1800

* * *

Test system: HIV-1 NeoR6 resistant virus
Type: cell-based
Details: read-out: EC50 NeoR6^Res; Table 4
Method: Inhibition of HIV-1 cell replication was tested using the cMAGI assay, which is based on the ability of HIV-1 TAT to transactivate the expression of an integrated β-galactosidase reporter gene driven by the HIV-LTR (B. Chackeria et al., J. Virol., (1997) 71, 3932; Collins et al., Nat. Med. (2000) 6, 475). […]
Measured quantity: pEC50
Keep it numeric: pEC50 is minus log10 of the concentration in mol/L.

Below: 3 molecules and their reported pEC50.
CC(=O)N[C@H](CCCNC(=N)N)C(=O)N[C@H](CCCNC(=N)N)C(=O)N[C@H](CCCNC(=N)N)C(=O)N[C@H](CCCNC(=N)N)C(=O)N[C@H](CCCNC(=N)N)C(=O)N[C@H](CCCNC(=N)N)C(=O)N[C@H](CCCNC(=N)N)C(=O)N[C@H](CCCNC(=N)N)C(=O)N[C@H](CCCNC(=N)N)C(=O)NC[C@H]1O[C@H](O[C@H]2[C@H](O)[C@@H](O)[C@H](N)C[C@@H]2N)[C@H](N)[C@@H](O)[C@@H]1O    5.52
CC(=O)N[C@H](CCCNC(=N)N)C(=O)N[C@H](CCCNC(=N)N)C(=O)N[C@H](CCCNC(=N)N)C(=O)N[C@H](CCCNC(=N)N)C(=O)N[C@H](CCCNC(=N)N)C(=O)N[C@H](CCCNC(=N)N)C(=O)N[C@H](CCCNC(=N)N)C(=O)N[C@H](CCCNC(=N)N)C(=O)N[C@H](CCCNC(=N)N)C(=O)O    5.70
CC(=O)N[C@H](CCCNC(=N)N)C(=O)N[C@H](CCCNC(=N)N)C(=O)N[C@H](CCCNC(=N)N)C(=O)N[C@H](CCCNC(=N)N)C(=O)N[C@H](CCCNC(=N)N)C(=O)N[C@H](CCCNC(=N)N)C(=O)O    5.17

# context switch: different molecule, same pEC50
I have this molecule here, CC(=O)N[C@H](CCCNC(=N)N)C(=O)N[C@H](CCCNC(=N)N)C(=O)N[C@H](CCCNC(=N)N)C(=O)N[C@H](CCCNC(=N)N)C(=O)N[C@H](CCCNC(=N)N)C(=O)N[C@H](CCCNC(=N)N)C(=O)NC[C@H]1O[C@H](O[C@H]2[C@H](O)[C@@H](O)[C@H](N)C[C@@H]2N)[C@H](N)[C@@H](O)[C@@H]1O , and I need its recorded pEC50.
5.59
